- Test system: CMK
- Procedure summary: cells
- Parameters: species or system AML cell lines (8); Secondary HTS, 10-point dose-response in triplicate, Cell Titer Glo viability, four-parameter fit EC50
- Reported conditions: Homo sapiens, CMK, 72 h, read-out: CMK
For each entry below, report its EC50 value.
Answers are plain numbers, in µM.

>  <Chem smiles>
COc1cc(O)c2c(c1)/C=C/C[C@H](O)[C@H](O)C(=O)/C=C\C[C@H](C)OC2=O

>  <EC50 / µM>
0.37

$$$$

Now consider the entry below.
Quick one: EC50 of "O=C(CCCCCCNC(=O)c1cnc(N(c2ccccc2)c2ccccc2)nc1)NO" ?
9.1
